# measured.on: T1, full-length ECD of human IGSF11 fused to murine Fc (human, UniProt Q5DX21 23-241)
# T1 construct: also called Fc-fusion IGSF11 ECD; not shown: murine Fc
# T1 sequence: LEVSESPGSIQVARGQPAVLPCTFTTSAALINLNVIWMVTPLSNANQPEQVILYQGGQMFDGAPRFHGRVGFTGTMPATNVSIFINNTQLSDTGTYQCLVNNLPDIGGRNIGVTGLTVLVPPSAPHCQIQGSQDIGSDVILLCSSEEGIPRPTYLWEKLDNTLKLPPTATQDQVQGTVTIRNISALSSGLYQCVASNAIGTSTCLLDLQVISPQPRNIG
# measurement.description: IgG ELISA
pEC50: −log10 of the molar value.
value.kind: pEC50

# example entries with known answers
# binder, pEC50
records = [
    ("A-035 (IgG1 format) (antibody, V domains shown, human IgG1 format) VH: QVQLVQSGAEVKKPGASVKVSCKASGYTFTGYYMHWVRQAPGQGLEWMGWINPNSGNTGYAQKFQGRVTMTRNTSISTAYMELSSLRSEDTAVYYCARGRLERGYWYFDLWGRGTLVTVSS VL: NFMLTQPHSVSESPGRTVTISCTRSSGSITSNYVQWYQQRPGSAPTILIYEDKERPSEVPDRFSGSIDISSNSASLTISGLKTEDEADYYCQSYGGTSQGVLFGGGTKVTVL", "7.70 to 9.00"),
    ("A-026 (IgG1 format) (antibody, V domains shown, human IgG1 format) VH: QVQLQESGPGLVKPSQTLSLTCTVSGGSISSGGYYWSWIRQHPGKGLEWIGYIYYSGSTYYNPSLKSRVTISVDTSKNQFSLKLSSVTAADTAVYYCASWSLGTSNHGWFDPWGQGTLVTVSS VL: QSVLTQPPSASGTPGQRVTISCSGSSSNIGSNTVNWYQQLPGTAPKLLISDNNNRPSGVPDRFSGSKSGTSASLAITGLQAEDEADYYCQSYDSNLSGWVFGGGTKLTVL", "7.70 to 9.00"),
]

Reported pEC50, binder A-004 (IgG1 format) (antibody, V domains shown, human IgG1 format) VH: EVQLVESGGGLVKPGGSLRLSCAASGFTFSSYSMNWVRQAPGKGLEWVSSISSSSSYIYYADSVKGRFTISRDNAKNSLYLQMNSLRAEDTAVYYCARGQLLWFGESALIDAFDIWGQGTMVTVSS VL: EIVLTQSPSSLSASVGDRVTITCRASQSISSYLNWYQLKPGKAPKLLIYAASILQSGVPSRFSGSGSGTDFTLTISSLQPEDFAAYYCQQSYSTPRTFGQGTKLEIK : ____ 7.70 to 9.00

Reported pEC50, binder A-022 (IgG1 format) (antibody, V domains shown, human IgG1 format) VH: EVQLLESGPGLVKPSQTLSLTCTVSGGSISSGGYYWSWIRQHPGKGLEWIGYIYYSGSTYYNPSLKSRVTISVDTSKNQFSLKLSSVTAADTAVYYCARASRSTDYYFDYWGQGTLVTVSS VL: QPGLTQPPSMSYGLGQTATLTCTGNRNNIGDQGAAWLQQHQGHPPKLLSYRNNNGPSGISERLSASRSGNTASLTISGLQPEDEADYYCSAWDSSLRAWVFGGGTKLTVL : ____ > 9.00

Reported pEC50, binder A-010 (IgG1 format) (antibody, V domains shown, human IgG1 format) VH: QVQLVQSGAEVKKPGASVKVSCKASGYTFTSYGISWVRQAPGQGLEWMGWISAYNGNTNYAQKLQGRVTMTTDTSTSTAYMELRSLRSDDTAVYYCARVPAWSGQFDYWGQGTLVTVSS VL: QSALTQPASVSGSPGQSITISCTGSSSDVGGYNYVSWYQQYPGKAPKLMIYDVRSRPSGVSNRFSGSKSGNTASLTISGLQAEDEADYYCTSYTSSNTLVIFGGGTKVTVL : ____ > 9.00

Reported pEC50, binder A-027 (IgG1 format) (antibody, V domains shown, human IgG1 format) VH: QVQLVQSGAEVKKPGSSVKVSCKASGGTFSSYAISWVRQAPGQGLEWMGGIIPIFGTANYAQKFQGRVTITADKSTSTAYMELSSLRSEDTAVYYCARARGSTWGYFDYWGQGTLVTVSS VL: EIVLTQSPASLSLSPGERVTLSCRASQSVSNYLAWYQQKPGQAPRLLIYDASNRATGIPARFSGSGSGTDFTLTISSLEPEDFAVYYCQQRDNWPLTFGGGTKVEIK : ____ 7.70 to 9.00

Reported pEC50, binder A-024 (IgG1 format) (antibody, V domains shown, also called A-024-like ABP) VH: QMQLVQSGAEVKKPGSSVKVSCKASGGTFSSYAISWVRQAPGQGLEWMGWISAYNGNTNYAQKLQGRVTMTTDTSTSTAYMELRSLRSDDTAVYYCASLGSYGYTGAFDIWGQGTMATVSS VL: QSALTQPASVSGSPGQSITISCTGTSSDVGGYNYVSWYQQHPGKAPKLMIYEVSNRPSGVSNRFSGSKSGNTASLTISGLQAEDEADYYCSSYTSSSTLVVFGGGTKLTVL : ____ > 9.00

Reported pEC50, binder A-011 (IgG1 format) (antibody, V domains shown, human IgG1 format) VH: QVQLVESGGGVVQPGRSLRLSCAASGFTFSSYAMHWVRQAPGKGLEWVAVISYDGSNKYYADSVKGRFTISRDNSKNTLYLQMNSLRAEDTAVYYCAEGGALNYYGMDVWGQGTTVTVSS VL: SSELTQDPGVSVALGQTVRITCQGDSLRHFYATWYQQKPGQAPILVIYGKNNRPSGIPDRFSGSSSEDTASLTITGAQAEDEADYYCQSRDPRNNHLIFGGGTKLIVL : ____ > 9.00

Reported pEC50, binder A-006 (IgG1 format) (antibody, V domains shown, human IgG1 format; also called A-006-like ABP) VH: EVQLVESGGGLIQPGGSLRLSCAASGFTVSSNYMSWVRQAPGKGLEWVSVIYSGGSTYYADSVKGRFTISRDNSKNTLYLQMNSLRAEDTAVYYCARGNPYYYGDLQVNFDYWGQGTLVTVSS VL: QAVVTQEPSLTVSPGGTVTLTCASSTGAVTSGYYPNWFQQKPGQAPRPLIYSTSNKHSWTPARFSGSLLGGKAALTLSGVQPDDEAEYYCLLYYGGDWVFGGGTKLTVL : ____ > 9.00
